Cited source: patent US20110218188A1

experiment: Measurement of logP values by HPLC on reversed phase columns (EEC directive 79/831 Annex V.A8); assay type: physicochemical; conditions: pH 2.7
Checkbox rule: logP lower than 3 = T; logP not lower than 3 = F.

[ask] # TODO verify logP < 3 strictly for this compound: CCN(C)C(=O)c1cc(-c2ncnc(Nc3cccc(OC(F)F)c3)n2)ccn1
[reply] T

[ask] API: query returns whether the compound falls strictly under 3 in logP. Query: COCCN(C)C(=O)c1cc(-c2ncnc(Nc3cccc(C(F)(F)F)c3)n2)ccn1
[reply] T

[ask] Lab note: confirm whether the reported logP for this compound is below 3, equality not counting. compound: CC(C)CN(C)C(=O)c1cc(-c2ncnc(Nc3ccsc3)n2)ccn1
[reply] T

[ask] Given CCCN(C)C(=O)c1cc(-c2ncnc(Nc3ccc(Cl)c(C(F)F)c3)n2)ccn1 , is recorded logP strictly lower than 3?
[reply] F

[ask] Does the reported logP of CN(CC1CC1)C(=S)c1cc(-c2ncnc(Nc3ccccc3)n2)ccn1 stay below 3?
[reply] F

[ask] A record lists CON(C)C(=O)c1cc(-c2ncnc(Nc3cccc(Cl)c3)n2)ccn1 . Is its logP below 3?
[reply] T

[ask] In plain terms, does O=C(O)c1cc(-c2ncnc(Nc3cccc(C(F)F)c3)n2)ccn1 come in under 3 for logP?
[reply] T

[ask] Bench note: check whether CC(C)CN(C)C(=O)c1cc(-c2ncnc(Nc3ccccc3)n2)ccn1 shows logP below 3
[reply] T

[ask] Decide: logP of CCN(C)C(=S)c1cc(-c2ncnc(N(C(=O)COC)c3cccc(F)c3)n2)ccn1 strictly below 3?
[reply] T

[ask] Record CC(=O)Nc1cccc(Nc2ncnc(-c3ccnc(C(=O)N(C)CC(C)C)c3)n2)c1 : is its logP strictly below 3?
[reply] T

[ask] Dear reviewer, please state whether CC(C)N(CCO)C(=O)c1cc(-c2ncnc(Nc3cccc(Cl)c3)n2)ccn1 has logP strictly beneath 3.
[reply] T

[ask] Does this compound meet the criterion logP < 3? O=C(NCCCO)c1cc(-c2ncnc(Nc3cccc(Cl)c3)n2)ccn1
[reply] T

[ask] Here's an entry: CC(C)CCN(C)C(=O)c1cc(-c2ncnc(Nc3cccc(Cl)c3)n2)ccn1 . Is its logP below 3?
[reply] F

[ask] Does N#CC1CCN(C(=O)c2cc(-c3ncnc(Nc4cccc(Cl)c4)n3)ccn2)CC1 have logP strictly under 3?
[reply] T

[ask] Dear colleague, could you confirm whether logP of CN(C)C(=O)c1cc(-c2ncnc(Nc3cccc(OC(F)(F)F)c3)n2)ccn1 falls below 3? Thanks.
[reply] T

[ask] I wonder whether CCCN(C)C(=O)c1cc(-c2ncnc(Nc3cccc(C(F)F)c3)n2)ccn1 has logP below 3. Can you tell?
[reply] T

[ask] Please state whether logP is below 3 for CCN(C)C(=O)c1cc(-c2ncnc(Nc3cccc(F)c3)n2)ccn1
[reply] T

[ask] Determine if CCCC(C)NC(=O)c1cc(-c2ncnc(Nc3ccc(C)c(Cl)c3)n2)ccn1 (centres unmarked) shows logP strictly lower than 3.
[reply] F

###

assay: Measurement of logP values by HPLC on reversed phase columns (EEC directive 79/831 Annex V.A8); type: physicochemical; details: pH 7.8
Marks after values point to notes of the source that are not given here.
propertyLabel: logP

[ask] Consider the compound COc1ccc(Nc2ncnc(-c3ccnc(C(=O)N4CCCC4)c3)n2)cn1 and give its measured logP.
[reply] 1.99^[c]

[ask] Given CCCN(C)C(=O)c1cc(-c2ncnc(Nc3ccc(OC)nc3)n2)ccn1 , state its recorded logP.
[reply] 2.11^[c]

[ask] Any idea what logP was measured for NC(=O)c1cc(-c2ncnc(Nc3cccc(C(F)F)c3)n2)ccn1 ?
[reply] 2.04^[c]
